- testedOn: T1, human SLC34A2 (human, UniProt O95436 1-690)
- T1 construct: whole, on cells; also called human solute carrier 34 A2; NaPi2b
- T1 sequence (looked up): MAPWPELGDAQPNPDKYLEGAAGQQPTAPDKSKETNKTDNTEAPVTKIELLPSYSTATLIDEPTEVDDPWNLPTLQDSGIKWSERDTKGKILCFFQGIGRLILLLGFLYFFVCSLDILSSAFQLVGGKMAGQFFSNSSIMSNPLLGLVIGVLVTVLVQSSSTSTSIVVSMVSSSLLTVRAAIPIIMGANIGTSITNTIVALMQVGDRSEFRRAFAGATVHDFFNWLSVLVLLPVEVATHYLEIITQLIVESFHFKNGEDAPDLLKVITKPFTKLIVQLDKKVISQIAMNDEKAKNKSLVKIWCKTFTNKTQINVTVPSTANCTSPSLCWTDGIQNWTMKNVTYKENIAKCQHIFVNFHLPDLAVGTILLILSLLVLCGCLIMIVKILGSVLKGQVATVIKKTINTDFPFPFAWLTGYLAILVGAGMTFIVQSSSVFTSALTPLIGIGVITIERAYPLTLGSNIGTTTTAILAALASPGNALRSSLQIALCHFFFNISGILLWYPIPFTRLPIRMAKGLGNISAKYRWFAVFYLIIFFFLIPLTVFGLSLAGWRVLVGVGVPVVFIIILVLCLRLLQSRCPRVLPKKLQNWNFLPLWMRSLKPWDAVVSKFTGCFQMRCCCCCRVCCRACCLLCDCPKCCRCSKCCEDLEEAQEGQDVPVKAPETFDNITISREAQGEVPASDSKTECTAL
- protocolDetails: FACS, OVCAR3 cells
assayEndpoint: EC50 (nM)

{"columns": ["binder", "reportedResult"],
 "data": [
  ["xi30H9B8F9 hIgG1 (antibody, V domains shown, chimeric, hIgG1) VH: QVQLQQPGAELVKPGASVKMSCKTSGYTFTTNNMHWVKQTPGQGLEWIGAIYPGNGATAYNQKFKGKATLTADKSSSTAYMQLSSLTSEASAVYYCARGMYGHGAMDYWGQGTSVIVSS VL: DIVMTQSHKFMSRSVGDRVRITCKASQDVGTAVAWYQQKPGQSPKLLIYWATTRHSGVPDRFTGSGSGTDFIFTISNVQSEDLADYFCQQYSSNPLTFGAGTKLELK", 0.53],
  ["xi84F2D10 hIgG1 (antibody, V domains shown, chimeric, hIgG1) VH: QVQLQQPGAVLVKPGASVKMSCKASGYTFTSYNLHWVKQTPGQGLEWIGAIYPGNGDTSYIQKFKGKATLTADKSSSTAYMQLSSLTSEDSAVYYCARGKYGNYEGFAYWGQGTLVTVSA VL: DILLTQSPAILSVSPGERVSISCRASQSIGTSIYWYQQRRNGSPRLLIKFASESISGIPSRFSGSGSGTDFTLSINSVESEDIADYYCQQNNRWPFTFGSGTKLEIK", 3.84],
  ["xi87H12B7 hIgG1 (antibody, V domains shown, chimeric, hIgG1) VH: QVQLQQPGAEVVRPGASVKMSCKASGYTFTSYIVHWVKQPPGQGLEWIGAIYPGNGDTSYIQKFKGRATLTADKSSSTVYMQLSSLTSEDSAVYYCARGHYYGSAAWFGFWGQGTLVTVSA VL: DILLTQSPAILSVSPGERVSFSCRASQNIGTSIHWYQQRTNDSPRLLMRYASESVSGIPSRFSGSGSGTDFTLSINSVESEDIADYYCQQSNTWPLTFGAGTKLELK", 5.43]
]}
